For each entry below, report its Enzyme Activity Endpoint Assay (purified): Fc value.
- ASSAY SYSTEM: pooled human IgG
Kindly answer with a numeric value in ng/µL, unit omitted.

Value of measured Enzyme Activity Endpoint Assay (purified): Fc for the entry PRT-322 (protein) MTITSVWTKGVTPPTPEDFRENNEDVLHAPYVANQGWYDITKTFDGKDNLLCGAATAGNMLHWWFDQNKEEIERYLKKHPEKQKIIFNNQELFDVKAAIDTKDSQTNSKLFDYFRDKAFPNLSARQLGVMPDLVLDMFINGYYLNLGKTQSTDVNRPYQDKDKRGGIFDAVFTRGDQTTLLTARHDLKNKGLNEISDLIKQELTEGKALALSHTYANVRINHVINLWGADFDAEGNLIAIYVTDSDANASIGMKKYFVGRNANGKVAISAKKIEGDNIGAQVLGLFTLSTGQDQWQKLS : 381

Value of measured Enzyme Activity Endpoint Assay (purified): Fc for the entry PRT-565 (protein) MANQEIRYSEATPSHITSVWTKGVTPPTQFIQNEDVLHAPYIANQGWYDITKTFNGKDDLLCGAATAGNMLHWWFDQNKEQIENYLKKHPEKQKINFNGEQMFDVKEAIDTKDSQTDSALFSYFKDKAFPYLSTKHLGVFPDHVIDMFINGYRLSLTNHGPTPVKRQTKDPRGGIFDAVFTRGDQSKLLTSRHDFKEKTLNEISQLIKQELTEGKALGLSHTYANVRINHVINLWGADFNAEGNLEAIYVTDSDSNASIGMKKYYVGVNSAGKVAISAKEIEGDNIGAQVLGLFTLSTGQDIWQQTNLEHHHHHH : 471

Value of measured Enzyme Activity Endpoint Assay (purified): Fc for the entry PRT-162 (protein) MANQEIRYSEVTPYHVTSVWTKGVTPPANFTQGEDVFHAPYVANQGWYDITKTFNGKDDLLCGAATAGNMLHWWFDQNKDQIKRYLEEHPEKQKINFNGEQMFDVKEAIDTKNSQTNSELFNYFKEKAFPYLSTKHLGVFPDHVIDMFINGYRLSLTNHGPTPVKEGSKDPRGGIFDAVFTRGDQSKLLTSRHDFKEKNLKEISDLIKKELTEGKALGLSHTYANVRINHVINLWGADFDSNGNLKAIYVTDSDSNASIGMKKYFVGVNSAGKVAISAKEIKEDNIGAQVLGLFTLSTGQDSWNQTN : 196

Value of measured Enzyme Activity Endpoint Assay (purified): Fc for the entry PRT-230 (protein) MEVVEVWPYGQNPNGKTEILSQTEDSESLQRLRDIEDFQAEKKMQNVVYTKWLDGVDVKDHDFRKIVDGNIAYYATPLLNGRGFYDINKDFNRDSDKCAAAVAANMFHYWLDINRDNVDRFLRQNPEKHGIIELPDGQLKLSDFLNTYESDNGYRDKSKLFDFISNNFNGPVWTDKLLDNYINGYAYNYKYGRTIEDPTKNTSKINFFKEVFNEKILTNNHSIRNQNEFSVLLSEALYTGKAIGLSYGPAGLRHSLGHIISVWGADLDADGNVVAIYVTDSDDKKLTIGDERVGLKRYKISTDDENRLRLTAYEETHNTGGQIRGLWTLDTGKYAWADYFDKTEQTGTDQAEQLEHHHHHH : 454

Value of measured Enzyme Activity Endpoint Assay (purified): Fc for the entry PRT-240 (protein) MEVVEVWPYGQNPNGKTEILSQTEDSESLQRLRDIEDFQAEKKMQNVVYTKWLDGVDVKDHDFRKIVDGDYAYYATPLLNGRGFYDINKDFNRDSDKCAAAVAANMFHYWLDINRDNVDRFLRQNPEKHGIIELPDGQLKLSDFLNTYESDHGYRDKSKLFDFISNAFNGPVWADKLLDNYINGYGYNKKYGRTIEDPTKNTSKFNFFKEVFNEKILTNNHQIRNQNEFSVLLSEALYTGKAIGLAYGPGGLRHSLGHIISVWGADLDADGNVVAIYVTDSDDKKLTIGDERVGLKRYKISTDDNNRLRLTTYEETHNTGAQIRGLETLDTGKYAWADYFDKTEQTGTDQAEQLEHHHHHH : 82

Value of measured Enzyme Activity Endpoint Assay (purified): Fc for the entry PRT-160 (protein) MANQEIRYSEVTPYHVTTVWTDGVKPPTDFIKGEDVFHAPYKAHQGWYDITKTFNGKDDLLCGAATAGNMLHWWFDQNKDQIKRYLEEHPEKQKINFNGEQMFDVKEAIDTKNHQLDSKLFEYFKEKAFPYLSTKHLGVFPDHVIDMFINGYRLSLTNHGPTPVKEGSKDPRGGIFDAVFTRGDQSKLLTSRHDFKEKNLKEISDLIKKELQEGKALGLSHTYANVRINHVINLWGADFDSNGNLKAIYVTDSDSNASIGMKKYFVGVNSAGKVAISAKEIKEDNIGAQVLGLFTLSTGQDSWNQTN : 168

Value of measured Enzyme Activity Endpoint Assay (purified): Fc for the entry PRT-122 (protein) MRNATEAYAKEVPKKITSVWTKGVTPLTPEQFIYQNEDVFHAPYLAHQGWYDITKTFNGKDNLLCGAATAGNMLHWWFDQNKEEIERYLSKHPEKQKIIFNNQELFDLKAAIDTKDSQTNSALFNYFRDKAFPNLSARQLGVMPDLVLDMFINGYYLNVTKTQSTDVNRPYQTKDKRGGIFDAVFTRGDQTKLLTERHDLKNKTLEEISQLIKQELTEGKALGLSHTYANVRISHVINLWGADFDAEGNLEAIYVTDSDSNASIGMKKYFVGVNASGKVAISAKKIEDDNIGAQVLGLFTLSSGKDIWEKLS : 194

Value of measured Enzyme Activity Endpoint Assay (purified): Fc for the entry PRT-58 (protein) MANQEIRYSEVTPYHVTSVWTKGVTPPANFTQGEDVFHAPYVANQGWYDINKTFNGKDDLLCGAATAGNMLHWWFDQNKEYIDRYLKEHPEKQKINFNGEQMFDVKEAIDTKNHQLDSKLFEYFKEKAFPYLSTKHLGVFPDLVLDMFINGYRLSLTNHGPTPVKEGSKDPRGGFFDDVFTRGDQSKLLTSRHDFKEKNLKEISDLIKKELTEGKALGLSHTYANVRINHVINLWGADFDSNGNLKAIYVTDSDSNASIGMKKYFVGVNSAGKVAISAKEIKEDNIGAQVLGLFTLSTGQDSWNQTN : 9
